test system: SF-539; test: NCI tumour cell line growth inhibition, 48 h
Calls of active or inactive are those of the source. No stated cut-off is given here; in the data, active = GI50 up to about 1.1 µM and inactive = higher.
Measured GI50 values are reported for all entries that follow.

{"COMPOUND": "CCCCCCOc1ccc(C(=O)N(C)O)cc1", "TESTED_TARGET": "SF-539", "GI50": "15 µM (inactive)"}
{"COMPOUND": "Cc1nc2ccc(S(=O)(=O)NS(=O)(=O)c3ccc(-c4ccccc4)cc3)cc2c(=O)n1NS(=O)(=O)c1ccc(-c2ccccc2)cc1", "TESTED_TARGET": "SF-539", "GI50": "> 100 µM (inactive)"}
{"COMPOUND": "CSc1nc2cc(S(=O)(=O)N3CCCCC3)ccc2s1", "TESTED_TARGET": "SF-539", "GI50": "> 100 µM (inactive)"}
{"COMPOUND": "CCN1CCC(O)(/C=C/c2ccc(C(C)C)cc2)C(C(=O)/C=C/c2ccc(C(C)C)cc2)C1 (stereo not given)", "TESTED_TARGET": "SF-539", "GI50": "2.29 µM (inactive)"}
{"COMPOUND": "CC12NC(=C(C#N)C#N)C(C#N)=C3NC(N)=C(C#N)C(=C31)Oc1ccccc12 (stereo not given)", "TESTED_TARGET": "SF-539", "GI50": "4.32 µM (inactive)"}
{"COMPOUND": "COC(=O)c1c2c(cc3c1CC1(Cc4cc5c(c(C=O)c4C1)CCC5)C3)CCC2 (stereo not given)", "TESTED_TARGET": "SF-539", "GI50": "75.5 µM (inactive)"}
{"COMPOUND": "CC1=CC(=O)c2cccc(NC3=NCCO3)c21", "TESTED_TARGET": "SF-539", "GI50": "46.8 µM (inactive)"}
{"COMPOUND": "COc1cccc2cc(C)c(C(=O)c3ccccc3)nc12", "TESTED_TARGET": "SF-539", "GI50": "> 100 µM (inactive)"}
{"COMPOUND": "O=C(/C(=C/c1ccccc1)c1ccccc1)N1c2ccccc2CC1c1c[nH]c2ccccc12 (stereo not given)", "TESTED_TARGET": "SF-539", "GI50": "> 100 µM (inactive)"}
{"COMPOUND": "O=C1CC(c2c[nH]c3ccccc23)C(=O)N1 (stereo not given)", "TESTED_TARGET": "SF-539", "GI50": "> 100 µM (inactive)"}
